Exercise: state measured pIC50 for each of the compounds provided.
biological target: SIK3 (Homo sapiens, UniProt Q9Y2K2); construct: purchased SignalChem S12-11G-100; test: ADP-Glo kinase assay, SIK3; type: biochemical
Sequence (Q9Y2K2 59-365 limits assumed): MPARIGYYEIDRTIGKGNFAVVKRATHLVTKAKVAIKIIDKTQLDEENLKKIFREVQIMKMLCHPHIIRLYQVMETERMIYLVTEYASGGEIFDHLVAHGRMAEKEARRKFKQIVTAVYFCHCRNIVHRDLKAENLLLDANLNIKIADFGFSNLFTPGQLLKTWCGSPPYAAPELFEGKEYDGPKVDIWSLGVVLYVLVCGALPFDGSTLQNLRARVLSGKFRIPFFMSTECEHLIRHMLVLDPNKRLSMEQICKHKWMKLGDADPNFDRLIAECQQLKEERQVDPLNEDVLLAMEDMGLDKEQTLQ
pIC50: −log10 of the molar value.

What does the data say about its pIC50? Entry: COc1cc(-c2cnc3cc(C(C)(C)CN4CCOCC4)ccn23)cc(OC(F)F)c1C(=O)NC1CC1
7.00 to 8.00

Now this one: COc1cc(-c2cnc3cc(C(C)(C)C(O)C(C)C)ccn23)cc(OC(F)F)c1C(=O)NC1CC1 (stereo not shown)
7.00 to 8.00

Now this one: COc1cc(-c2cnc3cc(C4CCN4)ccn23)cc(OC(F)F)c1C(=O)NC1CC1 (stereo not shown)
7.00 to 8.00

Now this one: COc1cc(-c2cnc3cc(C(C)(C)C#N)c(OCCO)cn23)cc(OC(F)F)c1C(=O)NC1CC1
7.00 to 8.00
